Cited source: the supplement of paper PMC5998384

System: HeLa Kyoto
Assay: melting temperature (median over replicates), in situ; higher = more thermally stable
Settings: cell cycle stage: mitosis
I'd be grateful if you could share measured melting temperature for these entries.
Answers are plain numbers, in °C.

item_sequence="MTDQAFVTLTTNDAYAKGALVLGSSLKQHRTTRRLVVLATPQVSDSMRKVLETVFDEVIMVDVLDSGDSAHLTLMKRPELGVTLTKLHCWSLTQYSKCVFMDADTLVLANIDDLFDREELSAAPDPGWPDCFNSGVFVYQPSVETYNQLLHLASEQGSFDGGDQGILNTFFSSWATTDIRKHLPFIYNLSSISIYSYLPAFKVFGASAKVVHFLGRVKPWNYTYDPKTKSVKSEAHDPNMTHPEFLILWWNIFTTNVLPLLQQFGLVKDTCSYVNVLSDLVYTLAFSCGFCRKEDVSGAISHLSLGEIPAMAQPFVSSEERKERWEQGQADYMGADSFDNIKRKLDTYLQ [GYG1]" display_unit=°C quantitative_result=52.1
item_sequence="MGVTCVSQMPVAEGKSVQQTVELLTRKLEMLGAEKQGTFCVDCETYHTAASTLGSQGQTGKLMYVMHNSEYPLSCFALFENGPCLIADTNFDVLMVKLKGFFQSAKASKIETRGTRYQYCDFLVKVGTVTMGPSARGISVEVEYGPCVVASDCWSLLLEFLQSFLGSHTPGAPAVFGNRHDAVYGPADTMVQYMELFNKIRKQQQVPVAGIR [MED20]" display_unit=°C quantitative_result=52.7
item_sequence="MGHRFLRGLLTLLLPPPPLYTRHRMLGPESVPPPKRSRSKLMAPPRIGTHNGTFHCDEALACALLRLLPEYRDAEIVRTRDPEKLASCDIVVDVGGEYDPRRHRYDHHQRSFTETMSSLSPGKPWQTKLSSAGLIYLHFGHKLLAQLLGTSEEDSMVGTLYDKMYENFVEEVDAVDNGISQWAEGEPRYALTTTLSARVARLNPTWNHPDQDTEAGFKRAMDLVQEEFLQRLDFYQHSWLPARALVEEALAQRFQVDPSGEIVELAKGACPWKEHLYHLESGLSPPVAIFFVIYTDQAGQWRIQCVPKEPHSFQSRLPLPEPWRGLRDEALDQVSGIPGCIFVHASGFIGGHRTREGALSMARATLAQRSYLPQIS [C12ORF10]" display_unit=°C quantitative_result=53.9
item_sequence="MGILEKISEIEKEIARTQKNKATEYHLGLLKAKLAKYRAQLLEPSKSASSKGEGFDVMKSGDARVALIGFPSVGKSTFLSLMTSTASEAASYEFTTLTCIPGVIEYKGANIQLLDLPGIIEGAAQGKGRGRQVIAVARTADVIIMMLDATKGEVQRSLLEKELESVGIRLNKHKPNIYFKPKKGGGISFNSTVTLTQCSEKLVQLILHEYKIFNAEVLFREDCSPDEFIDVIVGNRVYMPCLYVYNKIDQISMEEVDRLARKPNSVVISCGMKLNLDYLLEMLWEYLALTCIYTKKRGQRPDFTDAIILRKGASVEHVCHRIHRSLASQFKYALVWGTSTKYSPQRVGLTHTMEHEDVIQIVKK [DRG2]" display_unit=°C quantitative_result=51.6

For every item in the list below, what is its measured melting temperature?
1. MDDKELIEYFKSQMKEDPDMASAVAAIRTLLEFLKRDKGETIQGLRANLTSAIETLCGVDSSVAVSSGGELFLRFISLASLEYSDYSKCKKIMIERGELFLRRISLSRNKIADLCHTFIKDGATILTHAYSRVVLRVLEAAVAAKKRFSVYVTESQPDLSGKKMAKALCHLNVPVTVVLDAAVGYIMEKADLVIVGAEGVVENGGIINKIGTNQMAVCAKAQNKPFYVVAESFKFVRLFPLNQQDVPDKFKYKADTLKVAQTGQDLKEEHPWVDYTAPSLITLLFTDLGVLTPSAVSDELIKLYL [EIF2B1]
2. MEPAVSEPMRDQVARTHLTEDTPKVNADIEKVNQNQAKRCTVIGGSGFLGQHMVEQLLARGYAVNVFDIQQGFDNPQVRFFLGDLCSRQDLYPALKGVNTVFHCASPPPSSNNKELFYRVNYIGTKNVIETCKEAGVQKLILTSSASVIFEGVDIKNGTEDLPYAMKPIDYYTETKILQERAVLGANDPEKNFLTTAIRPHGIFGPRDPQLVPILIEAARNGKMKFVIGNGKNLVDFTFVENVVHGHILAAEQLSRDSTLGGKAFHITNDEPIPFWTFLSRILTGLNYEAPKYHIPYWVAYYLALLLSLLVMVISPVIQLQPTFTPMRVALAGTFHYYSCERAKKAMGYQPLVTMDDAMERTVQSFRHLRRVK [NSDHL]
3. MVKLTAELIEQAAQYTNAVRDRELDLRGYKIPVIENLGATLDQFDAIDFSDNEIRKLDGFPLLRRLKTLLVNNNRICRIGEGLDQALPCLTELILTNNSLVELGDLDPLASLKSLTYLSILRNPVTNKKHYRLYVIYKVPQVRVLDFQKVKLKERQEAEKMFKGKRGAQLAKDIARRSKTFNPGAGLPTDKKKGGPSPGDVEAIKNAIANASTLAEVERLKGLLQSGQIPGRERRSGPTDDGEEEMEEDTVTNGS [SNRPA1]
4. MIEQQKRKGPELPLVPVKRQRHELLLGAGSGPGAGQQQATPGALLQAGPPRCSSLQAPIMLLSGHEGEVYCCKFHPNGSTLASAGFDRLILLWNVYGDCDNYATLKGHSGAVMELHYNTDGSMLFSASTDKTVAVWDSETGERVKRLKGHTSFVNSCYPARRGPQLVCTGSDDGTVKLWDIRKKAAIQTFQNTYQVLAVTFNDTSDQIISGGIDNDIKVWDLRQNKLTYTMRGHADSVTGLSLSSEGSYLLSNAMDNTVRVWDVRPFAPKERCVKIFQGNVHNFEKNLLRCSWSPDGSKIAAGSADRFVYVWDTTSRRILYKLPGHAGSINEVAFHPDEPIIISASSDKRLYMGEIQ [SNRNP40]
5. MAPRGRKRKAEAAVVAVAEKREKLANGGEGMEEATVVIEHCTSURVYGRNAAALSQALRLEAPELPVKVNPTKPRRGSFEVTLLRPDGSSAELWTGIKKGPPRKLKFPEPQEVVEELKKYLS [C11ORF31]

A.
1: 55.4; 2: 53; 3: 54.2; 4: 50.7; 5: 52.2

====

I'd be grateful if you could share measured solubility change mitosis (log2) for these entries.
System: HeLa Kyoto
Assay: solubility change mitosis vs G1/S (difference of NP-40 vs SDS log2 ratios) (log2 ratio difference); higher = more soluble in mitosis
Numbers only.

item_sequence="MEKSWMLWNFVERWLIALASWSWALCRISLLPLIVTFHLYGGIILLLLIFISIAGILYKFQDVLLYFPEQPSSSRLYVPMPTGIPHENIFIRTKDGIRLNLILIRYTGDNSPYSPTIIYFHGNAGNIGHRLPNALLMLVNLKVNLLLVDYRGYGKSEGEASEEGLYLDSEAVLDYVMTRPDLDKTKIFLFGRSLGGAVAIHLASENSHRISAIMVENTFLSIPHMASTLFSFFPMRYLPLWCYKNKFLSYRKISQCRMPSLFISGLSDQLIPPVMMKQLYELSPSRTKRLAIFPDGTHNDTWQCQGYFTALEQFIKEVVKSHSPEEMAKTSSNVTII [ABHD13]" quantity_name="solubility change mitosis (log2)" quantitative_result=-0.176
item_sequence="MVSWMISRAVVLVFGMLYPAYYSYKAVKTKNVKEYVRWMMYWIVFALYTVIETVADQTVAWFPLYYELKIAFVIWLLSPYTKGASLIYRKFLHPLLSSKEREIDDYIVQAKERGYETMVNFGRQGLNLAATAAVTAAVKSQGAITERLRSFSMHDLTTIQGDEPVGQRPYQPLPEAKKKSKPAPSESAGYGIPLKDGDEKTDEEAEGPYSDNEMLTHKGLRRSQSMKSVKTTKGRKEVRYGSLKYKVKKRPQVYF [REEP3]" quantity_name="solubility change mitosis (log2)" quantitative_result=-0.0257
item_sequence="MAGSVADSDAVVKLDDGHLNNSLSSPVQADVYFPRLIVPFCGHIKGGMRPGKKVLVMGIVDLNPESFAISLTCGDSEDPPADVAIELKAVFTDRQLLRNSCISGERGEEQSAIPYFPFIPDQPFRVEILCEHPRFRVFVDGHQLFDFYHRIQTLSAIDTIKINGDLQITKLG [LGALSL]" quantity_name="solubility change mitosis (log2)" quantitative_result=-0.16
item_sequence="MDLFGDLPEPERSPRPAAGKEAQKGPLLFDDLPPASSTDSGSGGPLLFDDLPPASSGDSGSLATSISQMVKTEGKGAKRKTSEEEKNGSEELVEKKVCKASSVIFGLKGYVAERKGEREEMQDAHVILNDITEECRPPSSLITRVSYFAVFDGHGGIRASKFAAQNLHQNLIRKFPKGDVISVEKTVKRCLLDTFKHTDEEFLKQASSQKPAWKDGSTATCVLAVDNILYIANLGDSRAILCRYNEESQKHAALSLSKEHNPTQYEERMRIQKAGGNVRDGRVLGVLEVSRSIGDGQYKRCGVTSVPDIRRCQLTPNDRFILLACDGLFKVFTPEEAVNFILSCLEDEKIQTREGKSAADARYEAACNRLANKAVQRGSADNVTVMVVRIGH [ILKAP]" quantity_name="solubility change mitosis (log2)" quantitative_result=-0.0534

Consider now this further sequence.
For reference, reported solubility change mitosis (log2) for MAAQSAPKVVLKSTTKMSLNERFTNMLKNKQPTPVNIRASMQQQQQLASARNRRLAQQMENRPSVQAALKLKQSLKQRLGKSNIQARLGRPIGALARGAIGGRGLPIIQRGLPRGGLRGGRATRTLLRGGMSLRGQNLLRGGRAVAPRMGLRRGGVRGRGGPGRGGLGRGAMGRGGIGGRGRGMIGRGRGGFGGRGRGRGRGRGALARPVLTKEQLDNQLDAYMSKTKGHLDAELDAYMAQTDPETND [CHTOP] stands at 0.761
